System: Septoria tritici
assay_procedure: Test G: wheat leaf blotch on wheat seedlings, sprayed the day before inoculation, visual disease rating
Type: in vivo
stated_conditions: 40 ppm (marked *); 100 = 100% disease control, 0 = no control
Marks after values point to notes of the source that are not given here.
We begin with a simple list: items and their reported Test G disease control rating.

Some solved cases for reference:
smiles_code: Fc1cccc(F)c1-n1c(Br)nc(Br)c1-c1ccc(Cl)cc1
experimental_value: 93* %
--
smiles_code: Fc1cc(-n2c(Br)nc(Br)c2-c2c(F)ccc(F)c2F)ccc1Cl
experimental_value: 96* %
--
smiles_code: Cc1nc(Cl)c(-c2c(F)cccc2F)n1-c1ccc2ccccc2c1
experimental_value: 96* %
--
smiles_code: Fc1ccc(F)c(-c2c(Br)nc(Br)n2-c2ccc(Cl)cc2)c1F
experimental_value: 96* %
--
smiles_code: COc1cc(F)c(-n2c(Cl)nc(Cl)c2-c2ccc(Cl)cc2)c(F)c1
experimental_value: 94* %

input: // lookup Test G disease control rating for Fc1cccc(F)c1-c1c(Cl)nc(Br)n1-c1ccc2ncccc2c1
output: 94* %

input: Consider the compound shown here: COc1cc(Cl)cc(Cl)c1-c1c(Cl)nc(Cl)n1-c1ccc(Cl)c(F)c1 What is its recorded Test G disease control rating?
output: 86* %

input: If you can, please state the reported Test G disease control rating value of CCc1nc(C)n(-c2ccc(Cl)cc2)c1-c1c(F)cccc1F .
output: 23* %

input: What value of Test G disease control rating has been reported for the following compound? Cc1nc(C)n(-c2c(F)cc(F)cc2F)c1-c1ccc(Cl)cc1
output: 88* %

====

Each record here notes measured Test G disease control rating.
Test system: Septoria tritici
assay_procedure: Test G: wheat leaf blotch on wheat seedlings, sprayed the day before inoculation, visual disease rating
Format: in vivo
stated_conditions: 200 ppm; 100 = 100% disease control, 0 = no control relative to controls
Numeric only. Scale: %

molecule: COc1cc(F)c(-c2c(Cl)nc(Cl)n2-c2cccc(OC(F)(F)F)c2)c(F)c1 [compound 567]
experimental_value: 94

input: Need Test G disease control rating of COc1cc(F)c(-c2c(Cl)nc(C)n2Cc2ccc(C)nc2)c(F)c1 [compound 671] , thanks.
output: 95

input: # input molecule: Fc1cc(F)c(-c2c(Cl)nc(Br)n2-c2cccc(OC(F)F)c2)c(F)c1 [compound 603] ; wanted: its Test G disease control rating
output: 99

input: Test G disease control rating lookup needed for COc1cc(F)c(-c2c(Cl)ncn2-c2cccc(Cl)c2)c(F)c1 [compound 497] , thanks.
output: 97

input: Which Test G disease control rating value is on record for CCOc1ccc(F)c(-c2c(Cl)nc(Br)n2-c2ccc(Cl)cc2)c1F [compound 662] ?
output: 99

input: Query (molecule): Cc1nn(C)c(-c2c(Cl)cccc2Cl)c1-c1cccc(F)c1 [compound 88] ; field requested: Test G disease control rating
output: 0

input: What value of Test G disease control rating has been reported for the following molecule? Fc1cc(F)c(-c2c(Cl)nc(Br)n2-c2ccc(OC(F)(F)F)cc2)c(F)c1 [compound 606]
output: 99

input: Which value of Test G disease control rating has been reported for CCOc1ccc(F)c(-c2c(Cl)ncn2-c2cccc(F)c2)c1F [compound 661] in the records?
output: 99

input: Which measured Test G disease control rating value corresponds to COc1cc(F)c(-c2c(Cl)ncn2-c2ccc(F)cc2)c(F)c1 [compound 136] ?
output: 96
